Data origin: BigSolDB 2.1

- Study Conditions: in acetonitrile, 308.15 K
Measure Name: solubility (mole fraction)
Number only, please.

Prompt: Item under review: "CC(C)C[C@H](NC(=O)OCC1c2ccccc2-c2ccccc21)C(=O)O" . Reported solubility (mole fraction)?
Response: 0.00832

* * *

- Study Conditions: in n-propanol, 288.15 K
Measure Name: solubility (mole fraction)
Number only, please.

Prompt: Item under review: "CC(C)C[C@H](NC(=O)OCC1c2ccccc2-c2ccccc21)C(=O)O" . Reported solubility (mole fraction)?
Response: 0.0245

* * *

- Study Conditions: in methanol, 313.15 K
Measure Name: solubility (mole fraction)

Prompt: Item under review: "CC(C)C[C@H](NC(=O)OCC1c2ccccc2-c2ccccc21)C(=O)O" . Reported solubility (mole fraction)?
Response: 0.0771
